Molecular target: Bac-F
Test: BIAcore, mAb vs Bac-F (1:1)
value_type: number in parentheses after KD (fold against SYNAGIS = 1)

These solved cases illustrate the format of a correct answer.
binder	recorded_measurement
P12f4 (monoclonal antibody) (antibody, V domains shown) VH: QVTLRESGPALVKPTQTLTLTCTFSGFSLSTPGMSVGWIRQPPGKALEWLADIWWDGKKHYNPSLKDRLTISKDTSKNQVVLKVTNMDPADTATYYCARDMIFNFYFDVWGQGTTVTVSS VL: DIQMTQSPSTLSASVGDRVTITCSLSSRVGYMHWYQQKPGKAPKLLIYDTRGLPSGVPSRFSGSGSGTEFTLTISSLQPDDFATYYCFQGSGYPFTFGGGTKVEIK	35 fold
A12a6 (monoclonal antibody) (antibody, V domains shown) VH: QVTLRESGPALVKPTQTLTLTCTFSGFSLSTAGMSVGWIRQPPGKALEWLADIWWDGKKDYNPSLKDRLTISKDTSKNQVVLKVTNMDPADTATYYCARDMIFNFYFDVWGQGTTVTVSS VL: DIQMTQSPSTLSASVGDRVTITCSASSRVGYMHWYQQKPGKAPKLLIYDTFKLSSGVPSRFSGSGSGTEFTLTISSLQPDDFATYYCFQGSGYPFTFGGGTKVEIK	98 fold

Kindly review the next binder as well.
Prompt: Which number in parentheses after KD (fold against SYNAGIS = 1) value is on record for A8c7 (monoclonal antibody) (antibody, V domains shown) VH: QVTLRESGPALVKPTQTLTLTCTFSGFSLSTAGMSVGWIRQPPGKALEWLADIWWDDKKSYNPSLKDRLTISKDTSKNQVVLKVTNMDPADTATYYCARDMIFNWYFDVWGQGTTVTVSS VL: DIQMTQSPSTLSASVGDRVTITCSASSRVGYMHWYQQKPGKAPKLLIYDTRYQSSGVPSRFSGSGSGTEFTLTISSLQPDDFATYYCFQGSGYPFTFGGGTKLEIK ?
Response: 19 fold
